Tested on: Saccharomyces cerevisiae
assay summary: protein stability index of tFT-peptide fusion (C-terminal peptide) (PSI (0-1 scale)); higher = more stable (slower turnover)
experimental context: genetic background: wild type; temperature: 30 C
Lab note: compare protein stability index against 0.7. Equal or greater, write fulfilled. Smaller, write not fulfilled.

>>> discrete_label("FLFVVSFGGAVA")
"not fulfilled"
>>> discrete_label("RSKKIFLTKKYS")
"not fulfilled"
>>> discrete_label("VRVRGDPLVCPL")
"not fulfilled"
>>> discrete_label("SPTPTSLTPPDF")
"fulfilled"
>>> discrete_label("KKNIKKKRNIEK")
"not fulfilled"
>>> discrete_label("FLFHAIGTCRLC")
"not fulfilled"
>>> discrete_label("YVLLSRFYLPPL")
"not fulfilled"
>>> discrete_label("LLALVLTYLLYG")
"not fulfilled"
>>> discrete_label("SLKIHIKQIEKK")
"fulfilled"
>>> discrete_label("HSPSSLCHPSTG")
"fulfilled"
>>> discrete_label("VIFCFCSRSCFL")
"not fulfilled"
>>> discrete_label("LNHTRKDSLLTC")
"not fulfilled"
>>> discrete_label("RPKPKRIGREEP")
"not fulfilled"
>>> discrete_label("LLPLVLHQAFSP")
"fulfilled"
>>> discrete_label("RRLLLAGTQLYV")
"not fulfilled"

====

Test system: Saccharomyces cerevisiae
assay summary: protein stability index of tFT-peptide fusion (C-terminal peptide) (PSI (0-1 scale)); higher = more stable (slower turnover)
experimental context: genetic background: wild type; temperature: 30 C
// reported protein stability index for each item listed
test readout: protein stability index

>>> recorded_measurement("VFCGCGGCVSLG")
0.655
>>> recorded_measurement("LFQFFSPCRIPE")
0.749
>>> recorded_measurement("PHSPLPAHPPCR")
0.745
>>> recorded_measurement("LLMLWWARVFSG")
0.329
>>> recorded_measurement("ISLWALSQLPVP")
0.79
>>> recorded_measurement("LPASLSLWPLLC")
0.114
>>> recorded_measurement("VPPLVPLHPPPP")
0.709
>>> recorded_measurement("PPPTLPSPPSPP")
0.712
>>> recorded_measurement("APPLPPSPPSAR")
0.729
>>> recorded_measurement("RSWLCFIVFGLF")
0.313
>>> recorded_measurement("LILFMLLSFLTT")
0.373
>>> recorded_measurement("SAVRLGANLCRT")
0.698
>>> recorded_measurement("VGCPLSLDAPEG")
0.687
>>> recorded_measurement("LSPLGLGPLLPP")
0.68
>>> recorded_measurement("FGGTAVAGLFDL")
0.725
>>> recorded_measurement("LPSPALSRSDPT")
0.729
>>> recorded_measurement("GGVVGGVGVYDG")
0.707
>>> recorded_measurement("FCSCSCEFVPRS")
0.618
>>> recorded_measurement("QCGAWLKFTCHV")
0.636
>>> recorded_measurement("AYVSLRASLLSS")
0.633
>>> recorded_measurement("APSLPPRLPWLY")
0.737
>>> recorded_measurement("HSASSDAGIKVR")
0.718
>>> recorded_measurement("TLRPKASPPAAL")
0.642
>>> recorded_measurement("RSFYDNVLRPFK")
0.776
>>> recorded_measurement("SDFLTYAEARLD")
0.72
>>> recorded_measurement("VPWSKIAARLII")
0.446
>>> recorded_measurement("CCLSFMSPFFCF")
0.75
>>> recorded_measurement("PTLPPHSLRPPP")
0.692
>>> recorded_measurement("ACVSWLPVPRQS")
0.696
>>> recorded_measurement("VVVSDFRSCNMS")
0.736
>>> recorded_measurement("EVPGALISLHFY")
0.654
>>> recorded_measurement("ISEGKTIIYCLW")
0.523
>>> recorded_measurement("VMNHYCRFPVST")
0.598
>>> recorded_measurement("KRAPEPPTPPAP")
0.672
>>> recorded_measurement("LPRTALHSPSPY")
0.723
>>> recorded_measurement("VLGWRLLPTAGI")
0.703
>>> recorded_measurement("LPLSRPPLPPPL")
0.786
>>> recorded_measurement("SASPHSPSPPSR")
0.627
>>> recorded_measurement("PPYPPPRPKPPR")
0.699
>>> recorded_measurement("PSPLFSGSFLFF")
0.716
>>> recorded_measurement("LLDGRNVPRFRK")
0.792

====

Test system: Saccharomyces cerevisiae
assay summary: protein stability index of tFT-peptide fusion (C-terminal peptide) (PSI (0-1 scale)); higher = more stable (slower turnover)
experimental context: genetic background: das1 deletion; temperature: 30 C
Label rule, in plain words: protein stability index of 0.7 and up is 1, under 0.7 is -1.

>>> discrete_label("GSSVPLDLTLFT [VRP1 C-terminal 12 aa]")
1
>>> discrete_label("ESLSNEAALKAN [RPO31 C-terminal 12 aa]")
-1
>>> discrete_label("MGDEYVSSDEDF [HEF3 C-terminal 12 aa]")
1
>>> discrete_label("VFKMIMFIASNE [STU1 C-terminal 12 aa]")
-1
>>> discrete_label("DVEVVCRQNNFV [YDR327W C-terminal 12 aa]")
1
>>> discrete_label("LHENQLLKWLSK [RRN5 C-terminal 12 aa]")
1
>>> discrete_label("PVFTASQLRFAW [ESA1 C-terminal 12 aa]")
1
>>> discrete_label("CTIQKMREKANT [YNL028W C-terminal 12 aa]")
-1
>>> discrete_label("FGSNVNQQFNFN [SRP1 C-terminal 12 aa]")
1
>>> discrete_label("KAQRSIWGKKSQ [ERV46 C-terminal 12 aa]")
-1
>>> discrete_label("QTNSKPAAVSTN [PLN1 C-terminal 12 aa]")
-1
>>> discrete_label("LLPLIYLINKSL [YMR013C-A C-terminal 12 aa]")
-1
>>> discrete_label("GMISKSLKIPKP [CHO1 C-terminal 12 aa]")
-1
>>> discrete_label("YEEAVDLGWNKN [OYE3 C-terminal 12 aa]")
1
>>> discrete_label("RIYDFFQSQNWM [ADA2 C-terminal 12 aa]")
1
>>> discrete_label("HLGDPLWNFSVE [TMA20 C-terminal 12 aa]")
1
>>> discrete_label("SPISVDFSSYLS [NBP1 C-terminal 12 aa]")
1
>>> discrete_label("ILISTIYAHCSS [HFD1 C-terminal 12 aa]")
-1
>>> discrete_label("KEESGTTSLPTI [GGA1 C-terminal 12 aa]")
1
>>> discrete_label("NTEPPEAPAATN [AFG3 C-terminal 12 aa]")
1
>>> discrete_label("WYQIVVQMIYIC [PSY1 C-terminal 12 aa]")
-1

====

Test system: Saccharomyces cerevisiae
assay summary: protein stability index of tFT-peptide fusion (C-terminal peptide) (PSI (0-1 scale)); higher = more stable (slower turnover)
experimental context: genetic background: wild type; temperature: 30 C
Where protein stability index equals or exceeds 0.2, the correct label is met; where it does not, the label is not met.

>>> discrete_label("SLPIFSGVASVR")
"met"
>>> discrete_label("FLIFFVCLFRWK")
"met"
>>> discrete_label("FFVYRFFSLSVC")
"not met"
>>> discrete_label("PYHAPRPPFSLF")
"not met"
>>> discrete_label("FVLSLGQLVFIF")
"met"
>>> discrete_label("LLILIVNLRRIG")
"met"
>>> discrete_label("RWRLWVGWGVVG")
"met"
>>> discrete_label("SRCLALVICYRV")
"not met"
>>> discrete_label("NAAVQSGGRVAG")
"met"
>>> discrete_label("EWRPYKRNKQSS")
"met"
>>> discrete_label("VFSFWVLCEVSV")
"not met"
>>> discrete_label("LCFVCLWGYLGV")
"met"
>>> discrete_label("CLVSLPILLFFR")
"not met"
>>> discrete_label("VVGFVFSCWWSW")
"met"
>>> discrete_label("WGVVMVCVVFGL")
"not met"
>>> discrete_label("WEPILLELELCV")
"met"
>>> discrete_label("AFYQSGGLVVVV")
"met"
>>> discrete_label("LASFCSVCIFIS")
"not met"

====

Tested on: Saccharomyces cerevisiae
assay summary: protein stability index of tFT-peptide fusion (C-terminal peptide) (PSI (0-1 scale)); higher = more stable (slower turnover)
experimental context: genetic background: wild type; temperature: 30 C
This section presents sequences with their documented protein stability index values.
test readout: protein stability index

>>> recorded_measurement("VLFFLVTSSVYF")
0.187
>>> recorded_measurement("LIRVLRVLRHSS")
0.194
>>> recorded_measurement("LAPSRNRSVWLV")
0.119
>>> recorded_measurement("PACPPLPPRSPS")
0.7
>>> recorded_measurement("FFFFSVHLSFLD")
0.176
>>> recorded_measurement("VCLLFRFCCWFW")
0.304
>>> recorded_measurement("VLPLRCSWAAQG")
0.298
>>> recorded_measurement("CSSSNRRRYFVL")
0.131
>>> recorded_measurement("KAIILGNIKINF")
0.624
>>> recorded_measurement("IWWFKELRVCRV")
0.424
>>> recorded_measurement("SCGVYVVFVLVE")
0.152
>>> recorded_measurement("RPIFAYRPLRFL")
0.231
>>> recorded_measurement("FKFGVFDFRFLC")
0.0879
>>> recorded_measurement("VPGPSPPRFTQR")
0.656
>>> recorded_measurement("GVFVVVGEASVH")
0.406
>>> recorded_measurement("CYFLFFLSYSLE")
0.226
>>> recorded_measurement("VFGWWSVVLRVA")
0.0694
>>> recorded_measurement("ENKGGNQKRRKK")
0.635
>>> recorded_measurement("YSVFCPLFFIIY")
0.283
>>> recorded_measurement("GRTDFSTLLLIC")
0.132
>>> recorded_measurement("LFHVWSLRFFWL")
0.282
>>> recorded_measurement("CNIYVLIIIKKY")
0.164
>>> recorded_measurement("VVRSIVVYTCVF")
0.253
>>> recorded_measurement("CRLLYYIPCGLF")
0.403
>>> recorded_measurement("LYCGLIFFLRGV")
0.472
>>> recorded_measurement("FFFFFIHFLCYF")
0.239
>>> recorded_measurement("IFFSLFFFFLCN")
0.289
>>> recorded_measurement("VCVYLVSLPYLA")
0.232
>>> recorded_measurement("FFFLVRLCRLCV")
0.261
>>> recorded_measurement("SLFDQDCGGTVW")
0.671
>>> recorded_measurement("FHLVIYWCVRGP")
0.281
>>> recorded_measurement("AIPRWLALLVAH")
0.159
>>> recorded_measurement("RWCLWGTRVWVS")
0.111
>>> recorded_measurement("GGGVGVAVVLFW")
0.342
>>> recorded_measurement("LSFFDYVLLQIA")
0.199
>>> recorded_measurement("FSCRRISFFLLV")
0.176
>>> recorded_measurement("FVSFTVSFSVVV")
0.342
>>> recorded_measurement("GFRVPVVVGVRG")
0.33
>>> recorded_measurement("RVVILFVFLVYV")
0.25
>>> recorded_measurement("GVFVWVVFVCTM")
0.201
>>> recorded_measurement("VACLRLTVYVMG")
0.124
>>> recorded_measurement("LVLGLYGVWLVV")
0.243
>>> recorded_measurement("LVSWAWIWIFVF")
0.194
>>> recorded_measurement("ISSYKFLRIVLV")
0.149
>>> recorded_measurement("VSWSVSALIYLK")
0.277
>>> recorded_measurement("RWRDGVAWVVVC")
0.098
>>> recorded_measurement("IGLSIWSVVSAL")
0.286
>>> recorded_measurement("RRVPVHIHFSLF")
0.194
>>> recorded_measurement("SGPNASRFYAPI")
0.656
>>> recorded_measurement("RWELASKCRLCV")
0.16
>>> recorded_measurement("SVGCCLLCFFVL")
0.351
>>> recorded_measurement("VFILGFLCLLFF")
0.334
>>> recorded_measurement("ACLVAVWRWVFV")
0.0758
>>> recorded_measurement("LFDVLFVFSFIF")
0.42
>>> recorded_measurement("VYVLVFNMENIS")
0.401
>>> recorded_measurement("ARLTNYFVEWLS")
0.383
>>> recorded_measurement("HCNRRNKIYWYS")
0.111
>>> recorded_measurement("ASGVFSRLVLVS")
0.201
>>> recorded_measurement("FAKRVARVAREH")
0.219
>>> recorded_measurement("VSGVLRSMVRLQ")
0.324
>>> recorded_measurement("FWYIRIRLAVVA")
0.0257
>>> recorded_measurement("SFHTFFCPFFIL")
0.168
>>> recorded_measurement("GCLSFVAAVHLH")
0.332
>>> recorded_measurement("VHNIDLFVVCYI")
0.258
>>> recorded_measurement("LWWTRVILYGYI")
0.353
>>> recorded_measurement("VFFIFFFAFLFF")
0.322
>>> recorded_measurement("LCVFRFFLFFFL")
0.291
>>> recorded_measurement("CVARWPRPAGSS")
0.673
>>> recorded_measurement("GWLSVLVYFLSG")
0.326
>>> recorded_measurement("SIFFLVPLVFLS")
0.141
>>> recorded_measurement("SWMSQFSILLTA")
0.167
>>> recorded_measurement("GVVCWVVVFGGW")
0.262
>>> recorded_measurement("RLMVHQHTIPVR")
0.316
>>> recorded_measurement("VYGSLPVVVCRI")
0.413
>>> recorded_measurement("LHLLFLPFVVCL")
0.0711
>>> recorded_measurement("WWVAGLGSSGGG")
0.677
>>> recorded_measurement("AFAFLLHRFLLV")
0.11
>>> recorded_measurement("VVGVLLLYLNPF")
0.336
>>> recorded_measurement("GFSSRWLMQYMV")
0.375
>>> recorded_measurement("YVLWFVCGVGFV")
0.298
>>> recorded_measurement("WHFMVFFCFCVD")
0.277
>>> recorded_measurement("GLSLVCWIVVLG")
0.178
